- Assayed target: Chloroquine resistance transporter (Plasmodium falciparum, UniProt Q9N623)
- Sequence (Q9N623 whole entry): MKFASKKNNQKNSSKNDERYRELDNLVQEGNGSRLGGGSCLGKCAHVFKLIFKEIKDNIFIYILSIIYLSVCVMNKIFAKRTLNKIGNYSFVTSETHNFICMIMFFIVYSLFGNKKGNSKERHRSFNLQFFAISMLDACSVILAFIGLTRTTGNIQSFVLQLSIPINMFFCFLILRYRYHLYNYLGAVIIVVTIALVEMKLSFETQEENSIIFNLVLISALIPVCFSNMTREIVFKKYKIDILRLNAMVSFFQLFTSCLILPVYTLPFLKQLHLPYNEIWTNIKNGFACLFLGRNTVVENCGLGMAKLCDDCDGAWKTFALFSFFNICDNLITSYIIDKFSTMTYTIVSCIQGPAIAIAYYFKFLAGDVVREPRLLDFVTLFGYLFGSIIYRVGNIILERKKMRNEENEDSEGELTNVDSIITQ
- Protocol details: Inhibition of chloroquine-resistant Plasmodium falciparum Dd2 chloroquine resistance transporter expressed in xenopus laevis oocytes assessed as inhibition of [3H]chloroquine uptake after 1 to 2 hrs
Parameter measured: pIC50
One number for each entry, as −log10 of the molar value.

{"Chemical string": "CN(Cc1ccccc1)Cc1cccc(CNc2ccnc3cc(Cl)ccc23)c1", "pIC50": 4.44}
{"Chemical string": "CN(Cc1ccccc1)Cc1ccccc1CNc1ccnc2cc(Cl)ccc12", "pIC50": 4.24}

Kindly consider the entry below.
// pIC50 lookup, key: CN(Cc1ccccc1)Cc1ccc(CNc2ccnc3cc(Cl)ccc23)cc1
4.16

====

- Protocol details: Inhibition of beta-hematin formation assessed as equivalents of drug relative to hematin for 50% inhibition at pH 4.5 by BHIA assay
- Format: functional
Parameter measured: IC50 (equivalents)
Give bare numbers, in equivalents.

Check out these entries, answers already filled in.
{"Molecule": "CN(Cc1ccc(Cl)cc1)Cc1ccccc1CNc1ccnc2cc(Cl)ccc12", "Parameter measured": "IC50", "Value observed": 1.4}
{"Molecule": "CN(Cc1ccccc1)Cc1ccccc1CNc1ccnc2cc(Cl)ccc12", "Parameter measured": "IC50", "Value observed": 1.1}

Answer for every listed entry: what is its IC50? The entries follow.
1. CCN(CC)CCCC(C)Nc1ccnc2cc(Cl)ccc12 (stereo unspecified) [CHLOROQUINE]
2. COc1ccc(CN(C)Cc2ccc(CNc3ccnc4cc(Cl)ccc34)cc2)cc1
3. CN(Cc1ccc(Cl)cc1)Cc1cccc(CNc2ccnc3cc(Cl)ccc23)c1
4. CN(Cc1ccccc1)Cc1cccc(CNc2ccnc3cc(Cl)ccc23)c1

1.9
1.44
0.66
0.69

====

- Test system: Plasmodium falciparum
- Protocol details: Antimalarial activity against erythrocyte stages of chloroquine-sensitive Plasmodium falciparum D10 infected in human erythrocytes by lactate dehydrogenase assay
- Assay type: functional, organism-based
Parameter measured: IC50 (nM)
Answers are plain numbers, in nM.

{"Chemical string": "COc1ccc(CN(C)Cc2cccc(CNc3ccnc4cc(Cl)ccc34)c2)cc1", "Units label": "nM", "IC50": 91}
{"Chemical string": "COc1ccc(CN(C)Cc2ccccc2CNc2ccnc3cc(Cl)ccc23)cc1", "Units label": "nM", "IC50": 175}
{"Chemical string": "COc1ccc(CN(C)Cc2ccc(CNc3ccnc4cc(Cl)ccc34)cc2)cc1", "Units label": "nM", "IC50": 130}
{"Chemical string": "CN(Cc1ccc(N(C)C)cc1)Cc1ccccc1CNc1ccnc2cc(Cl)ccc12", "Units label": "nM", "IC50": 178}

Kindly consider the entry below.
// IC50 lookup, key: CN(Cc1ccc(Cl)cc1)Cc1cccc(CNc2ccnc3cc(Cl)ccc23)c1
138

These entries and their values trace back to ChEMBL document CHEMBL1828581.
